# System: diaphorase
# EXPERIMENTAL_DETAILS: fluorescently labeled diaphorase binding to peptide array with or without excess FAD
# MEASUREMENT_PARAMETERS: ratio without/with FAD calculated from measured binding values, 1 micromolar diaphorase
QUANTITY: Meas. ratio
Give the figure only, with no unit attached.

# lookup: Meas. ratio of RQRYPKVSGGSG [array peptide with C-terminal GSG linker]
1.71

# iterate: VFGVLSQVARDGSG [array peptide with C-terminal GSG linker]
0.64

Cool, now RWKYQKFNGGSG [array peptide with C-terminal GSG linker]
2.63

* * *

# System: diaphorase
# EXPERIMENTAL_DETAILS: fluorescently labeled diaphorase binding to peptide array with or without excess FAD
# MEASUREMENT_PARAMETERS: ratio without/with FAD calculated from measured binding values, 1 micromolar diaphorase
QUANTITY: Meas. ratio
The answer should be written as a number, with no unit following it.

Worked examples, 3 sequences total:
RQAYLFGGSG [array peptide with C-terminal GSG linker]: 3.23
RFGQNLPLGGSG [array peptide with C-terminal GSG linker]: 2.76
RLYPQGYGGSG [array peptide with C-terminal GSG linker]: 2.62

Here's the next entry for you.
Recorded Meas. ratio for RQYQKHSYAKFSGSG [array peptide with C-terminal GSG linker] with diaphorase, please?
2.75
